Test system: IL-2 secretion by human effector memory T cells (TEM)
assay-notes: Effector memory T cells IL-2 release assay
Assay type: cell-based
assay-conditions: T-cell; human CD4+ effector memory T cells, CD3/CD28 bead stimulation, 24 h; read-out: CD4TC IL2 IC50
pIC50: −log10 of the molar value.
measurement-type: pIC50

Examples from the recorded data:
compound	measurement-type	endpoint-result
COC[C@@]1(C)CCN(c2ccc([C@H](N(C)C(=O)[C@H]3CC[S@@](=N)(=O)CC3)C(F)(F)F)cc2)c2cnc3cc(Cl)nn3c21 (relative stereo)	pIC50	7.19
CN(C(=O)[C@H]1CC[S@@](=N)(=O)CC1)[C@@H](c1ccc(N2CCCc3c2cnc2cc(Cl)nn32)cc1)C(F)(F)F (relative stereo)	pIC50	6.97
CN(C(=O)C1CCS(=O)(=O)CC1)[C@@H](c1ccc(N2CCCc3c2cnc2cc(Cl)nn32)c(F)c1)C(F)(F)F	pIC50	6.95
C[C@H]1CCN(c2ccc([C@H](N(C)C(=O)[C@@H]3CCC(=O)NC3)C(F)(F)F)cc2)c2cnc3cc(Cl)nn3c21 (relative stereo)	pIC50	7.06

[A] CN(C(=O)[C@@H]1CC(=O)N1)[C@@H](c1ccc(N2CCCc3c2cnc2cc(Cl)nn32)cc1)C(F)(F)F
[B] COc1cc([C@H](N(C)C(=O)C2CCS(=O)(=O)CC2)C(F)(F)F)ccc1N1CCCc2c1cnc1cc(Cl)nn21
Which record shows the lower pIC50: the first, A , or the second, B ? // return label of chosen record
B
(B: 6.19, A: 6.92)

Source of measurements: patent US20250051327A1
